- Tested on: NCI-H1395
- protocol details: relative viability (nuclei count vs DMSO), 5 days (fraction); higher = more cells survive
- settings: first compound 0.3162 µM
Documented relative viability across a set of compounds
Please give the numeric answer without any surrounding text.

In the examples that follow, each entry is paired with its recorded relative viability.
NC(=O)Nc1cc(-c2cccc(F)c2)sc1C(=O)N[C@H]1CCCNC1 [AZD7762] + O=C(CCCCCCC(=O)Nc1ccccc1)NO [Vorinostat] (partner 1 µM)
0.32
NC(=O)Nc1cc(-c2cccc(F)c2)sc1C(=O)N[C@H]1CCCNC1 [AZD7762] + O=C(c1cc(Cc2n[nH]c(=O)c3ccccc23)ccc1F)N1CCN(C(=O)C2CC2)CC1 [Olaparib] (partner 8 µM)
0.387
NC(=O)Nc1cc(-c2cccc(F)c2)sc1C(=O)N[C@H]1CCCNC1 [AZD7762] + Nc1nc2[nH]cc(CCc3ccc(C(=O)N[C@@H](CCC(=O)O)C(=O)O)cc3)c2c(=O)[nH]1 [Pemetrexed] (partner 0.2 µM)
0.401
NC(=O)Nc1cc(-c2cccc(F)c2)sc1C(=O)N[C@H]1CCCNC1 [AZD7762] + Cc1nc(Nc2ncc(C(=O)Nc3c(C)cccc3Cl)s2)cc(N2CCN(CCO)CC2)n1 [Dasatinib] (partner 0.075 µM)
0.371

Could you now consider this next compound?
[Q] Please state recorded relative viability (tested on NCI-H1395) of NC(=O)Nc1cc(-c2cccc(F)c2)sc1C(=O)N[C@H]1CCCNC1 [AZD7762] + C[C@]1(O)C[C@@H](c2nc(-c3ccc4ccc(-c5ccccc5)nc4c3)c3c(N)nccn32)C1 [Linsitinib] (partner 1 µM)
[A] 0.579

Numbers sourced from the supplement of paper PMC10307832.
